Tested on: SW-620 colon
Assay: NCI tumour cell line growth inhibition, 48 h
OBSERVABLE: TGI

Return reported TGI. Input compound: O=C(O)CN(c1ccccc1)S(=O)(=O)c1ccc(Cl)cc1
> 100 µM

Return reported TGI. Input compound: O=C1C(Cl)=C(Nc2cccc(O)c2)C(=O)N1c1cccc(Cl)c1
> 100 µM

Return reported TGI. Input compound: NCCCc1c(-c2ccccc2)nc(N)[nH]c1=O
> 100 µM

====

Tested on: NCI-H460 lung
Assay: NCI tumour cell line growth inhibition, 48 h
OBSERVABLE: TGI

Return reported TGI. Input molecule: CN(C)CCNC(=O)c1ccc(NCCCN(C)CCCNc2ccc(C(=O)NCCN(C)C)c3[nH]c4ccc([N+](=O)[O-])cc4c(=O)c23)c2c(=O)c3cc([N+](=O)[O-])ccc3[nH]c12
0.169 µM

Return reported TGI. Input molecule: Cn1c2ccccc2n2c(=O)c3cccnc3c(C#N)c12
> 100 µM

Return reported TGI. Input molecule: c1ccc2c(c1)nnn2CNc1ccc(N2CCOCC2)cc1
> 100 µM

Return reported TGI. Input molecule: COC(OC)(c1ccccc1)C(I)I
37.7 µM

Return reported TGI. Input molecule: Cc1cc(O)c(/C=N/c2nc(-c3cccc([N+](=O)[O-])c3)cs2)c(=O)o1
> 100 µM

Return reported TGI. Input molecule: CSc1nc(O)c(/C=C2\C=Nc3ccccc32)[nH]1
> 100 µM

Return reported TGI. Input molecule: COc1cc([C@@H]2c3cc4c(cc3[C@H](OC(C)=O)[C@H]3COC(=O)[C@H]23)OCO4)cc(OC)c1OC
> 100 µM

Return reported TGI. Input molecule: CCOC(=O)C1(C(=O)OCC)CC(=O)[C@@]2(C1)OCC[C@H]1OC(=O)C[C@H]12
> 100 µM

Return reported TGI. Input molecule: c1ccc(/N=C2\c3ccccc3CN2c2ccccn2)nc1
> 100 µM

Return reported TGI. Input molecule: C[C@]12CC(C#N)C(=O)C(O)=C1CC[C@@H]1C2CC[C@@]2(C)C1CC[C@@H]2O (some centres not stated)
> 100 µM

Return reported TGI. Input molecule: O=C1CCCCC[C@]12SC[C@H]1CON=C12
> 100 µM

Return reported TGI. Input molecule: CCC1CCCCN1C(=S)N/N=C(\C)c1ccccn1 (configuration not stated)
3.17 µM

Return reported TGI. Input molecule: CCOC(=O)/C(C#N)=C\C=C1/C=CNC2=NCCN21
> 100 µM

Return reported TGI. Input molecule: CC(C)(C)N1CC(OC(N)=O)C1
> 100 µM

Return reported TGI. Input molecule: Nn1c(SCC(=O)NCc2ccccc2)nc2ccccc2c1=O
> 100 µM

Return reported TGI. Input molecule: COc1cc2ccc(/C(C)=N/OC(C)=O)cc2cc1OC
> 100 µM

Return reported TGI. Input molecule: Nc1nc(N)c2nc(-c3ccco3)cnc2n1
> 100 µM

Return reported TGI. Input molecule: CC(=O)O[C@H]1C(=O)[C@@]2(C)[C@H]([C@H](OC(=O)c3ccccc3)[C@]3(O)C[C@H](OC(=O)[C@H](O)[C@@H](NC(=O)CC(C)C)c4ccccc4)C(C)=C1C3(C)C)[C@]1(OC(C)=O)CO[C@@H]1C[C@@H]2O
> 10 µM

Return reported TGI. Input molecule: N#C/C(=C/C=C/c1ccccc1)S(=O)c1ccccc1 (configuration not stated)
2.92 µM

Return reported TGI. Input molecule: CSc1ccc(/C=C2\N=C(c3ccccc3)N(c3nc4c(Cl)cc(Cl)cc4s3)C2=O)cc1
> 100 µM

Return reported TGI. Input molecule: COc1cc2c(cc1OC)C(Cc1ccccc1CCCl)=NCC2
> 100 µM

Return reported TGI. Input molecule: CC1C(c2ccc3c(c2)OCO3)c2cc3c(cc2OC1N1CCCCC1)OCO3 (configuration not stated)
> 100 µM

====

Tested on: TK-10 renal
Experiment: NCI tumour cell line growth inhibition, 48 h
OBSERVABLE: TGI

Return reported TGI. Input compound: O=C1CCC2=C3C4CCCCC4C(=O)C4CCCC(OC2C1)C34 (stereo not drawn)
> 29.5 µM

Return reported TGI. Input compound: CC1=C(C(=O)NCC(C)O)CC(C(=O)NCC(C)O)=C(C)N1 (stereo not drawn)
> 100 µM

Return reported TGI. Input compound: COc1c(B(O)O)cccc1-c1nc2c(F)cc3[nH]ncc3c2c2c1CCCC2
> 38.4 µM

====

System: CCRF-CEM leukemia
Test: NCI tumour cell line growth inhibition, 48 h
OBSERVABLE: TGI (nM)
Just the number in nM, nothing appended.

Recall the reported TGI of COc1ccccc1N=N/C(=N/NC(=O)c1ccc(C)cc1)c1ccc(N(CCC#N)CCC#N)cc1OC when tested on CCRF-CEM leukemia.
40900

Recall the reported TGI of O=C1C=C(N2CC2)C(=O)C=C1N1CC1 when tested on CCRF-CEM leukemia.
456

Recall the reported TGI of CN(C)CCNC(=O)c1ccc(NCCCN(C)CCCNc2ccc(C(=O)NCCN(C)C)c3[nH]c4ccc([N+](=O)[O-])cc4c(=O)c23)c2c(=O)c3cc([N+](=O)[O-])ccc3[nH]c12 when tested on CCRF-CEM leukemia.
145

====

Tested on: LOX IMVI melanoma
Experiment: NCI tumour cell line growth inhibition, 48 h
Where a SMILES comes first, the peptide text is derived from it. The star is where a group is joined. Boc = CC(C)(C)OC(=O)*
OBSERVABLE: TGI

Return reported TGI. Input compound: CCOCC(NC(=O)C(CC(C)C)NC(=O)OC(C)(C)C)C(N)=O (stereo not drawn) (Boc-Leu-Ser(Et)-NH2; configuration not given here)
> 100 µM

Return reported TGI. Input compound: O=c1[nH]c2ccc(CC(=S)N3CCN(c4ccccc4)CC3)cc2o1
> 100 µM

Return reported TGI. Input compound: COc1ccc(C[C@H]2COC(=O)[C@@H]2Cc2ccc(O)cc2)cc1OC
> 100 µM

Return reported TGI. Input compound: CC(C)c1cccc(C(C)C)c1N=C(N)C#N
> 56.2 µM

====

For each record, write down the corresponding TGI.
Test system: OVCAR-8 ovarian
Test: NCI tumour cell line growth inhibition, 48 h

Return reported TGI. Input molecule: COc1ccc(CCc2ccc(O)c(C(=O)O)c2)cc1OC
> 100 µM

Return reported TGI. Input molecule: O=S(=O)(NCCCNc1cc(-c2cn(-c3ccccc3)nc2-c2cccc(O)c2)ccn1)c1cccc2ccccc12
> 100 µM

Return reported TGI. Input molecule: O=C(Nc1ccc(Cl)cc1)c1cc2cc(F)ccc2cc1O
> 100 µM

====

Tested on: A549 NSCLC
Experiment: NCI tumour cell line growth inhibition, 48 h; in the data active means GI50 below about 0.43 µM; inactive means the rest
Give your call using only these classes: active, inactive

What is the recorded call for this molecule in the test? Cc1cccc2c1O/C(=C\c1ncc([N+](=O)[O-])n1C)C2=O
active

What is the recorded call for this molecule in the test? CCn1cc(C(=O)N/N=C/c2cccc(F)c2)c(=O)c2cc(F)c(N3CCNC(C)C3)c(F)c21 (stereo not given)
inactive

What is the recorded call for this molecule in the test? O=C1CCC2=C3C4CCCCC4C(=O)C4CCCC(OC2C1)C34 (stereo not given)
inactive

What is the recorded call for this molecule in the test? C/C=C1\C(=O)O[C@@H]2C1C[C@@H]1O[C@H]2[C@H](C)CCC/C(C)=C/CC[C@@]1(C)O (stereo not given in full)
inactive

What is the recorded call for this molecule in the test? O=C1C(Cl)=C(Nc2cccc(O)c2)C(=O)N1c1cccc(Cl)c1
inactive

====

For each record, write down the corresponding TGI.
Test system: NCI-H23 lung
Assay: NCI tumour cell line growth inhibition, 48 h

Return reported TGI. Input molecule: COc1cc2c(=O)n(CCCn3ccnc3)c3c4cc5c(cc4ccc3c2cc1OC)OCO5
> 100 µM

Return reported TGI. Input molecule: O=C(O)CN(c1ccccc1)S(=O)(=O)c1ccc(Cl)cc1
> 100 µM

Return reported TGI. Input molecule: CCN(CC)C(=O)CNC(=O)OC(C)(C)C
> 100 µM

====

For each record, write down the corresponding TGI.
Test system: SR leukemia
Experiment: NCI tumour cell line growth inhibition, 48 h

Return reported TGI. Input compound: CCOC(=O)/C(C#N)=C\C=C1/C=CNC2=NCCN21
> 100 µM

Return reported TGI. Input compound: O=C(NC1CCN(Cc2ccccc2)CC1)c1cc(C(=O)NC2CCN(Cc3ccccc3)CC2)cc(C(=O)NC2CCN(Cc3ccccc3)CC2)c1
26.2 µM

Return reported TGI. Input compound: CCN(CC)CCSc1nc2c(c(=N)n1-c1ccccc1)c(=S)n(-c1ccccc1)c(=S)n2-c1ccccc1
0.936 µM

Return reported TGI. Input compound: CC(=O)N1N=C(N)CC1=O
> 100 µM

Return reported TGI. Input compound: O=C(CN1CCOCC1)CC(O)(C(F)(F)F)C(F)(F)F
> 100 µM

Return reported TGI. Input compound: O=S(=O)(NCCCNc1cc(-c2cn(-c3ccccc3)nc2-c2cccc(O)c2)ccn1)c1cccc2ccccc12
7.33 µM

Return reported TGI. Input compound: NC1=NC(c2ccccc2)CC(c2cc(Cl)cc(Br)c2O)=N1 (stereo not given)
> 100 µM

Return reported TGI. Input compound: O=C1/C(=C/c2cccs2)NC(=S)N1CN1CCOCC1
> 100 µM

Return reported TGI. Input compound: O=S(=O)(O)c1ccc2c(N=Nc3ccccc3Cl)c(O)ccc2c1
> 100 µM

Return reported TGI. Input compound: N#CC(N=Nc1ccccc1)c1nc2ccccc2o1 (stereo not given)
> 100 µM
